# credit: PubChem BioAssay (NCATS)

MEASUREMENT NOTES: Quantitative high throughput screen for delayed death inhibitors of the malarial parasite plastid, 96 hour incubation (AID 488745); further: nearly all actives have a fitted effect of over 70% in size
CONDITION SUMMARY: Plasmodium falciparum growth; series mostly up to 28.7 µM
Records with an inconclusive call do not appear. Activity calls are given as the source filed them. The call rests on the fitted dose curve; in most records, active means well fitted inhibition curve with a large enough effect; inconclusive means small, poorly fitted or top-dose-only effect, or effect the other way; inactive means no such curve, though single readings can be large or run the other way.
Please state which outcome applies, choosing from active, inactive

(Q) Give the logged outcome of this assay for the following compound: `Cc1nccc2c1[nH]c1ccccc12`
(A) inactive

(Q) Call for entry NC(N)=NOCCC(N)C(=O)O (stereo not given) :
(A) inactive

(Q) Dear colleague, could you share the recorded outcome for CC(Cc1ccc(O)cc1)NCC(O)c1cc(O)cc(O)c1 (stereo not given) when you have a moment?
(A) inactive

(Q) Please share the test call associated with `Clc1cnc(Oc2ccc(Oc3ncc(Cl)cc3Cl)cc2)c(Cl)c1` .
(A) inactive

(Q) Returns: the outcome recorded for `CC1=NN=C(c2ccc(N)cc2)c2cc3c(cc2C1)OCO3` in this assay.
(A) inactive

(Q) Fill in: this test's call for NC(=O)CN1CC(O)CC1=O (stereo not given) is ___
(A) inactive

(Q) What was the test verdict on `C[C@@H](N)Cc1cnc[nH]1` ?
(A) inactive

(Q) Hi, do you know how COc1cc(C(O)CN)ccc1O (stereo not given) came out in this test?
(A) inactive

(Q) Assay result, entry `S=C(NC1CCCCC1)N1CCC(c2cnc[nH]2)CC1` — outcome?
(A) inactive

(Q) Given `CC(C)Oc1cccnc1N(C)C1CCN(Cc2ccccc2)CC1` , state the outcome it received in this test.
(A) inactive

(Q) What did this assay record as the result for `C[C@]12N[C@H](Cc3ccccc31)c1ccccc12` ?
(A) inactive

(Q) For `CC[C@@]1(O)C(=O)OCc2c1cc1n(c2=O)Cc2cc3ccccc3nc2-1` , what call appears in the results of this test?
(A) active

(Q) Call for entry `CCCN1CCO[C@@H]2c3cc(O)ccc3OC[C@H]21` :
(A) inactive

(Q) Test call, this compound: CC(=O)[C@H]1CCC2C3CC[C@H]4C[C@H](O)CC[C@]4(C)C3CC[C@@]21C (stereo not given in full)
(A) inactive

(Q) What was the test verdict on `CCCN(CCC)[C@@H]1CCc2ccc(O)cc2C1` ?
(A) inactive

(Q) Please indicate how the test categorized NC(CCP(=O)(O)O)C(=O)O (stereo not given) .
(A) inactive

(Q) Status in this test for `C[C@@H]1O[C@H](C[N+](C)(C)C)C[C@H]1O` ?
(A) inactive

(Q) Given CCCN(CCC)C1CCc2ccc(O)cc2C1 (stereo not given) , state the outcome it received in this test.
(A) inactive

(Q) Recorded test outcome, item `CC(=O)NCCc1c[nH]c2ccccc12`
(A) inactive

(Q) Per the records of this test, what outcome belongs to `CC[C@@H]1C(=O)OC[C@@H]1Cc1cncn1C` ?
(A) inactive

(Q) Hi team, can someone confirm the assay call for `NCc1cc(=O)[nH]o1` ?
(A) inactive

(Q) What call does the record list for `C#CCOC(=O)C1=CCCN(C)C1` ?
(A) inactive

(Q) What did this assay record as the result for `O=C(O)[C@@H]1CCN1` ?
(A) inactive

(Q) Recorded call for `c1ccc(CCCN2CCN(CCOC(c3ccccc3)c3ccccc3)CC2)cc1` ?
(A) active

(Q) Hi, do you know how NC1CCc2cc(O)c(O)cc2C1 (stereo not given) came out in this test?
(A) inactive
